# assayed_system: Pax5(1-149) WT (human, UniProt Q02548 1-149)
# Sequence (Q02548 1-149): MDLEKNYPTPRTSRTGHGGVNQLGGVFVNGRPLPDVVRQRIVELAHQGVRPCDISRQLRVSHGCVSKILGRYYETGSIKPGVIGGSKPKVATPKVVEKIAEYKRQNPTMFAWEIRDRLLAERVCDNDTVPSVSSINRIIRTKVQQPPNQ
# experimental_protocol: EMSA
pKd: −log10 of the molar value.
property: pKd

- binder: "P5-EBS probe (dsDNA) DNA 1: TCGAAGGGCCACTGGAGCCCATCTCCGGCACGGC DNA 2: TCGAGCCGTGCCGGAGATGGGCTCCAGTGGCCCT"
  recorded_result: 8.62
